tested on: modified version of the GPR119 receptor (94% identity to human receptor); assay: cAMP production assay (LANCE cAMP kit, TR-FRET) in HEK-293 cells; type: cell-based; details: increase in cAMP relative to basal levels; agonist activity if 1.5-fold or greater
assay_endpoint: Fold over baseline
Please give the numeric answer without any surrounding text.

Task item: Item: CC(C)c1nsc(N2CCC(N3CCC(Oc4ccc(-c5nnn(C)n5)cc4)C3=O)CC2)n1 (stereo not shown) Test system: modified version of the GPR119 receptor (94% identity to human receptor) Read-out: Fold over baseline Value: ?
Reply: 2.5

Task item: Query for modified version of the GPR119 receptor (94% identity to human receptor): what Fold over baseline does the record show for CS(=O)(=O)c1ccc(O[C@H]2CCN(C3CCN(c4nc(Oc5ccccc5)ns4)CC3)C2=O)c(F)c1 ?
Reply: 4.2

Task item: Which Fold over baseline is reported with modified version of the GPR119 receptor (94% identity to human receptor) for this entry: COC(C)(C)c1nsc(N2CCC(N3CC[C@H](Nc4ccc(S(C)(=O)=O)cc4F)C3=O)CC2)n1 ?
Reply: 2.0

Task item: # get_value(readout= Fold over baseline, system= modified version of the GPR119 receptor (94% identity to human receptor)) for CC(C)c1nsc(N2CCC(N3CC[C@H](Nc4ccc(S(C)(=O)=O)cn4)C3=O)CC2)n1
Reply: 3.7

Task item: Param readout = Fold over baseline; param system = modified version of the GPR119 receptor (94% identity to human receptor); param query = CC(C)(C)c1nsc(N2CCC(N3CC[C@H](Oc4cc(F)c(S(C)(=O)=O)cc4F)C3=O)CC2)n1 ; response: value
Reply: 4.5

Task item: Record lookup: for modified version of the GPR119 receptor (94% identity to human receptor), what Fold over baseline belongs to CC(C)c1nsc(N2CCC(N3CCC(Oc4ccc(C(=O)NCCO)cc4F)C3=O)CC2)n1.Cl (stereo not shown) ?
Reply: 2.8

Task item: Return Fold over baseline measured with modified version of the GPR119 receptor (94% identity to human receptor) given this compound: CC(C)c1nsc(N2CCC(N3CCC(Oc4ccc(C(=O)N(C)CCO)cc4F)C3=O)CC2)n1 (stereo not shown)
Reply: 3.2

Task item: Lab note: need Fold over baseline with modified version of the GPR119 receptor (94% identity to human receptor) for entry CS(=O)(=O)c1ccc(N[C@H]2CCN(C3CCN(c4nc(C5CC5)ns4)CC3)C2=O)c(F)c1 , please look it up.
Reply: 2.9

Task item: API: value(readout= Fold over baseline, system= modified version of the GPR119 receptor (94% identity to human receptor), query= CSc1ccc(OC2CCN(C3CCN(c4nc(C(C)C)ns4)CC3)C2=O)cc1 (stereo not shown) )
Reply: 2.7

Task item: Identify the measured Fold over baseline of CC(C)c1nsc(N2CCC(N3CCC(Oc4ccc(C(=O)N(C)CCN(C)C)cc4F)C3=O)CC2)n1 (stereo not shown) for modified version of the GPR119 receptor (94% identity to human receptor).
Reply: 1.6

Task item: API: value(readout=Fold over baseline, system=modified version of the GPR119 receptor (94% identity to human receptor)) for record CCS(=O)(=O)c1ccc(OC2CCN(C3CCN(c4nc(-c5ccccc5)ns4)CC3)C2=O)c(F)c1 (stereo not shown)
Reply: 2.3

Task item: What measured Fold over baseline is associated with CC1(c2nsc(N3CCC(N4CC[C@H](Oc5ccc(S(C)(=O)=O)cc5F)C4=O)CC3)n2)CCOCC1 on modified version of the GPR119 receptor (94% identity to human receptor)?
Reply: 4.5

Task item: # returns recorded Fold over baseline (system: modified version of the GPR119 receptor (94% identity to human receptor)) for CC(C)c1nsc(N2CCC(N3CCC(Oc4ccc(C#N)cc4F)C3=O)CC2)n1 (stereo not shown)
Reply: 2.7
